This collection of values is drawn from the supplement of paper PMC8728848.

# STUDY TARGET: Gal(b1-3)[Neu5Ac(a2-6)]GlcNAc(b1-4)Gal(b1-4)Glc
# PROTOCOL DETAILS: glycan array binding signal (z-score within array); higher = stronger binding
# STUDY CONDITIONS: glycan notation: IUPAC condensed, linker removed
Many of the other results were omitted from the sample, so the strongest signals are more common in it than they were.
OBSERVATION TYPE: glycan array binding signal (z-score)
Give your answer as a number; write no unit.

INSERT INTO measurements (binder, observation_type, val) VALUES
  ('rCnSL-proA (Clitocybe nebularis) (protein) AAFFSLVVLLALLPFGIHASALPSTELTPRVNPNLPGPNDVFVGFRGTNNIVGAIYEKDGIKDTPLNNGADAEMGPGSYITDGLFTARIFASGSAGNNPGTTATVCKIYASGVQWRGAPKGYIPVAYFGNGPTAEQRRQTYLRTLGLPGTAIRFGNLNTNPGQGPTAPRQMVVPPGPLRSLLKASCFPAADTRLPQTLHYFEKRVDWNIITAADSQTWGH', 'glycan array binding signal (z-score)', -0.459);

Attention now turns to another entry.
Please give the measured glycan array binding signal (z-score) for this binder: DC-ASGPR S+GEE (Homo sapiens) (protein) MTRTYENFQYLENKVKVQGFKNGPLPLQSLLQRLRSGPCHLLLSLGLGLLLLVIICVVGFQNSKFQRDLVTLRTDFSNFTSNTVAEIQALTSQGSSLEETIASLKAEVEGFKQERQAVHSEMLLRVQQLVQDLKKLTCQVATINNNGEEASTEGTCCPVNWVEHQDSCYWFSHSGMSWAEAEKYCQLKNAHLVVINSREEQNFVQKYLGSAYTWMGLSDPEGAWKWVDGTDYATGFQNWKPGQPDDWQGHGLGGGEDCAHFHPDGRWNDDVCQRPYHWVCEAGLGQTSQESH -0.315
